The reported measurements were obtained from patent US9676771B2.

# tested.target: HIV-1 integrase (Human immunodeficiency virus type 1 group M subtype B, UniProt P12497)
# test.name: biochemical
# Format: biochemical
# condition.details: Table 1; strand transfer; read-out: IC50 Values Strand transfer
A collection of molecules and their measured IC50
Your answer should be a plain number; it is taken to be in µM.

molecule: O=C(NCc1ccc(F)c(Cl)c1)c1c(O)c2cccnc2[nH]c1=O [XZ366]
quantitative.readout: 7.8

molecule: O=C(NCc1ccc(F)c(Cl)c1)c1c(O)c2cccnc2n(O)c1=O [XZ365]
quantitative.readout: 0.027

molecule: O=C(NCc1ccc(F)c(Cl)c1)c1cc2cccc(O)c2n(O)c1=O [XZ374]
quantitative.readout: 0.53

molecule: O=C(NCc1ccc(F)cc1F)c1cc2ccccc2n(O)c1=O [XZ353]
quantitative.readout: 19.7

Consider the record given below.
IN: Kindly state the measured IC50 obtained for O=C(NCc1ccc(F)cc1F)c1c(O)c2cccnc2[nH]c1=O [XZ352] with HIV-1 integrase (Human immunodeficiency virus type 1 group M subtype B, UniProt P12497).
OUT: 7.1

====

# System: HIV-1 constructs containing mutant IN H51Y/R263K
# test.name: Single-round HIV-1 infectivity assay, IN double mutant H51Y/R263K
# Format: cell-based
# condition.details: Human immunodeficiency virus 1; Table 8; read-out: EC50 (nM, IN mutants) H51Y/R263K
property.label: EC50 (nM)
Supply the numeric figure in nM, leaving out any unit text.

Sample answers from the record:
compound: Nc1c(C(=O)NCc2ccc(F)cc2F)c(=O)n(O)c2ncc(CCCCCCO)cc12
EC50, nM: 5.2
//
compound: Nc1c(C(=O)NCc2ccc(F)cc2F)c(=O)n(O)c2ncc(CCCO)cc12
EC50, nM: 14.7
//
compound: Nc1c(C(=O)NCc2ccc(F)cc2F)c(=O)n(O)c2ncccc12
EC50, nM: 3.2
//
compound: CC(=O)OCCCCCc1cnc2c(c1)c(NCCO)c(C(=O)NCc1ccc(F)cc1F)c(=O)n2O
EC50, nM: 15.2
//
compound: COc1cc2c(cc1Cc1cccc(Cl)c1F)c(=O)c(C(=O)O)cn2[C@H](CO)C(C)C [EVG, elvitegravir, reference compound]
EC50, nM: 52.6

Let us examine a further case.
IN: So what does the record say about EC50 for `Nc1c(C(=O)NCc2ccc(F)cc2F)c(=O)n(O)c2ncc(CCCCCO)cc12` ?
OUT: 2.6

====

# Tested on: HIV-1 WT IN
# test.name: High growth serum assays in cells (WT)
# Type: cell-based
# condition.details: Human immunodeficiency virus 1, read-out: EC50 (nM), Table 9, 10% FBS
property.label: EC50 (nM)
Numbers only here, please. The scale is nM.

Look over these answered cases.
structure.string: Nc1c(C(=O)NCc2ccc(F)cc2F)c(=O)n(O)c2ncccc12
unit: nM
EC50: 0.8

structure.string: Nc1c(C(=O)NCc2ccc(F)cc2F)c(=O)n(O)c2ncc(CCCCCO)cc12
unit: nM
EC50: 0.93

structure.string: COC(=O)CNc1c(C(=O)NCc2ccc(F)cc2F)c(=O)n(O)c2ncccc12
unit: nM
EC50: 5

structure.string: CC(=O)OCCNc1c(C(=O)NCc2ccc(F)cc2F)c(=O)n(O)c2ncccc12
unit: nM
EC50: 2.2

IN: Query (compound): `COC(=O)CCc1cnc2c(c1)c(N)c(C(=O)NCc1ccc(F)cc1F)c(=O)n2O` ; field requested: EC50
OUT: 0.62

IN: Look at this compound and give its reported EC50. `Nc1c(C(=O)NCc2ccc(F)cc2F)c(=O)n(O)c2ncc(CCCCCCO)cc12`
OUT: 0.8
